I'd appreciate it if you could supply z-score values for the items below.
Experiment: MM1S cell viability effects, profiling panel, calcein-AM fluorescence, 48 h, basal (AID 1165);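 further: viability of MM1S multiple myeloma cells under basal unstimulated conditions; test concentration not given here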
Settings: higher = more signal
One number for each entry.

compound: CCCCC#C[C@@H]1C=C[C@H](OC(C)=O)[C@@H](COC(C)=O)O1
z-score: -3.37
//
compound: C[C@@H](c1ccccc1)N1C(=O)[C@H]2[C@H]3[C@H](O)[C@H](O)CC(=NO[C@@H]4O[C@H](CO)[C@@H](O)[C@H](O)[C@H]4O)[C@H]3CC[C@H]2C1=O
z-score: 0.254
//
compound: CCOC(=O)[C@H](CC(C)C)NC(=O)CCC1CC(OC(=O)NCc2ccc3c(c2)OCO3)CC2(CCCC(COC(=O)NCC3CCCCC3)O2)O1 (stereo partly specified)
z-score: -1.2
//
compound: COC(=O)[C@H](C)NC(=O)CCC1CC(OC(=O)NCc2ccc3c(c2)OCO3)CC2(CCCC(COC(=O)NCC3CCCCC3)O2)O1 (stereo partly specified)
z-score: -3.22
//
compound: COCOc1ccc(Br)cc1C(=O)[C@@H]1O[C@H]1c1cccc(OC)c1
z-score: -2.86

Please turn your attention to the following entry.
Ask: Identify measured z-score corresponding to "Cc1cc2c(nc1C)CCCN2CC(O)CN1CCCc2nc(C)c(C)cc21"
Result: -0.0227

* * *

Target: Epidermal growth factor receptor (Homo sapiens) (UniProt P00533)
Sequence (P00533 whole entry, looked up): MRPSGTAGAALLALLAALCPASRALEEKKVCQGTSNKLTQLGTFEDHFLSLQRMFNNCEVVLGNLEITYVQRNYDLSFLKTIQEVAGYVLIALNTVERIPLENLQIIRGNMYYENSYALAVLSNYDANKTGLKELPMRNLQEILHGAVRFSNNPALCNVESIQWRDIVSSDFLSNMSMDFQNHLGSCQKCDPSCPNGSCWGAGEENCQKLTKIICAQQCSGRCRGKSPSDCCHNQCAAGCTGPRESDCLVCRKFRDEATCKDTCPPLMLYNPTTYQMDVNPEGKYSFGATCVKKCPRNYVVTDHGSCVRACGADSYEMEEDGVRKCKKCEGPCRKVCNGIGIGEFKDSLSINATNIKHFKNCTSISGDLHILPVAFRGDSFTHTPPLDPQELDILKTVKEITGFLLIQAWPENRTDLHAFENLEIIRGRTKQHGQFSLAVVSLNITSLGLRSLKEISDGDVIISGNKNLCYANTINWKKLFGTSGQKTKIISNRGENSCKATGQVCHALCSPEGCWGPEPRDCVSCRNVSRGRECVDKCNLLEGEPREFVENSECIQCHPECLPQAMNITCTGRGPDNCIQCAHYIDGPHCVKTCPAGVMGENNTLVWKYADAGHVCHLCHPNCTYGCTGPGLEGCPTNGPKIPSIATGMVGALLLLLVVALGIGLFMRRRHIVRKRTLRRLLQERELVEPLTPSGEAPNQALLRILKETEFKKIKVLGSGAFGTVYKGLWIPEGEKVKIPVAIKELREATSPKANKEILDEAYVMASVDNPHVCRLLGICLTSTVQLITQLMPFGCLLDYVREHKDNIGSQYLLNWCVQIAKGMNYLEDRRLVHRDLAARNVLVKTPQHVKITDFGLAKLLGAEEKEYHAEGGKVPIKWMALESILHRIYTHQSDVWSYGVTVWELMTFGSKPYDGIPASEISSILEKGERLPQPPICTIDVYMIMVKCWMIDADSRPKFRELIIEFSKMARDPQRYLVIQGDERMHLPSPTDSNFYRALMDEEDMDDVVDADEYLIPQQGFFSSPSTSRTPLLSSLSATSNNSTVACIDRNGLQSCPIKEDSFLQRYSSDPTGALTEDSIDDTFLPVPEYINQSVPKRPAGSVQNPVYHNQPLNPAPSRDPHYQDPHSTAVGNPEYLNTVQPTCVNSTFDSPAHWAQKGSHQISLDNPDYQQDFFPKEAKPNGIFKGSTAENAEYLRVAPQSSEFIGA
Assay: EGFR binders on small-molecule microarrays, primary screen, biochemical, small-molecule microarray, 635 nm fluorescence (AID 1104);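 further: score merges 667 nm emission intensity with spot signal to noise over triplicate slides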
Settings: EGFR binding, higher = more signal
Kindly supply the reported composite z-score values for the records listed here.
Answers are plain numbers.

Solved cases (5 shown):
molecule: C[C@H]1CC[C@H]2C(=O)O[C@H](COc3ccc(C(C)(C)C)cc3)CN2[C@@H]1c1ccc(Br)cc1
target.or.system: Epidermal growth factor receptor (Homo sapiens) (UniProt P00533)
composite z-score: -0.0022

molecule: C[C@@H](ON=C1[C@H]2CCn3c(=O)n(-c4ccccc4)c(=O)n3[C@H]2[C@H](O)[C@@H]2O[C@H]12)c1cn([C@@H]2COC[C@H]2O)nn1
target.or.system: Epidermal growth factor receptor (Homo sapiens) (UniProt P00533)
composite z-score: 0.702

molecule: COC(=O)[C@H](C)NC(=O)CCC1CC(OC(=O)NCc2ccc3c(c2)OCO3)CC2(CCCC(COC(=O)NCC(c3ccccc3)c3ccccc3)O2)O1 (some centres undefined)
target.or.system: Epidermal growth factor receptor (Homo sapiens) (UniProt P00533)
composite z-score: 0.651

molecule: COC(=O)C=CCCc1coc(C=CCNC(=O)OC)n1
target.or.system: Epidermal growth factor receptor (Homo sapiens) (UniProt P00533)
composite z-score: 0.867

molecule: COc1cccc([C@H]2Oc3ccc(OC)cc3C(=NOC(C)CN3CCCCc4nc(C)c(C)cc43)[C@@H]2O)c1 (some centres undefined)
target.or.system: Epidermal growth factor receptor (Homo sapiens) (UniProt P00533)
composite z-score: 0.132

Consider the following items and state reported composite z-score for each.
1. O=C(NN=C1C[C@@H](O)[C@@H](O)[C@@H]2[C@@H]3C(=O)N(C[C@@H]4CCCO4)C(=O)[C@@H]3CC[C@@H]12)OCc1ccccc1
2. O=C1C[C@@H](O)[C@@H](O)[C@@H]2[C@@H]3C(=O)N(c4cccc(Oc5ccccc5)c4)C(=O)[C@@H]3CC[C@H]12
3. CCOC(=O)[C@H](CC(C)C)NC(=O)CCC1CC(OC(=O)NCCc2ccc(F)cc2)CC2(CCCC(COC(=O)NCCOc3ccccc3)O2)O1 (some centres undefined)
4. CCOC(=O)C1=NO[C@]2(C=C(Br)C3(OCCCO3)[C@H]3O[C@H]32)C1
5. CCOC(=O)[C@H](CC(C)C)NC(=O)CCC1CC(OC(=O)NCc2ccc3c(c2)OCO3)CC2(CCCC(COC(=O)NCC3CCCCC3)O2)O1 (some centres undefined)
6. CO[C@H]1COC(=O)[C@@H](C)COC(=O)[C@H](COCc2ccccc2)NC(=O)CC=C[C@H]1C
7. COC(=O)[C@@H]1CC[C@H](C)[C@@H](c2ccc(C)cc2)N1C(=O)c1ccc(C=NO[C@H](C)c2cn([C@@H]3COC[C@H]3O)nn2)cc1

Result:
[0.509, 0.573, 0.672, -0.203, 0.379, 0.039, 0.67]

Could you report composite z-score for every entry in the following list?
1. O=C(NN=C1C[C@@H](O)[C@@H](O)[C@@H]2[C@@H]3C(=O)N(Cc4ccccc4)C(=O)[C@@H]3CC[C@@H]12)OCc1ccccc1
2. COC(=O)CC=C[C@@H](C)[C@@H](C=NOCC[C@@H]1C=C[C@H](OC(C)=O)[C@@H](COC(C)=O)O1)OC
3. CC[C@@H](c1ccccc1)n1c(=O)n2n(c1=O)[C@H]1[C@H](O)[C@@H]3O[C@@H]3C(=O)[C@H]1CC2
4. COc1ccc(O[C@H]2C=C[C@@H](c3ccccc3)O[C@@H]2COC(=O)CCC(C)=NO[C@@H]2O[C@H](COC(C)=O)[C@@H](OC(C)=O)[C@H](OC(C)=O)[C@H]2OC(C)=O)cc1
5. C=CC[C@@H]1C=C[C@H](ON=C[C@@H](C)[C@H](OCc2ccccc2)C(C)C)[C@@H](CO)O1
6. C#CCCCON=C1C[C@@H](O)[C@@H](O)[C@@H]2[C@@H]3C(=O)N(CCC(=O)OCC)C(=O)[C@@H]3CC[C@H]12

Result:
1. 0.263
2. 0.498
3. 0.489
4. 0.609
5. -0.852
6. 0.542

State the recorded composite z-score for every item in the following list.
1. CO[C@@H]1COC(=O)[C@@H](C)NC(=O)CC=C[C@@H](C)[C@H](NS(=O)(=O)c2ccc(C)cc2)COC(=O)[C@H](C)NC(=O)CC=C[C@H]1C
2. C=C(C)C(=O)OCC1CN2[C@@H](CC[C@@H](C)[C@@H]2c2ccc(Br)cc2)C(=O)O1 (some centres undefined)
3. COC(=O)[C@@H]1CC[C@H](C)[C@@H](c2ccc(C)cc2)N1C(=O)c1ccc(C=NO[C@H](C)c2cn([C@H](CO)Cc3ccccc3)nn2)cc1
4. COC(=O)CC=C[C@@H](C)[C@@H](C=NO[C@@H](C)c1cn([C@H](CO)Cc2ccccc2)nn1)NS(=O)(=O)c1ccc(C)cc1
5. COc1ccc(O[C@@H]2[C@H](O)CO[C@H]2C=Cc2ccccc2)cc1
6. COc1ccc(COC(=O)NN=C2C[C@@H](O)[C@@H](O)[C@@H]3[C@@H]4C(=O)N(c5cccc(Oc6ccccc6)c5)C(=O)[C@@H]4CC[C@@H]23)cc1
7. COC(=O)CC=C[C@@H](C)[C@@H]1C=C[C@H](O)[C@@H](CO)O1
8. CO[C@H]1COC(=O)[C@H](C)NC(=O)[C@@H](C)COC(=O)[C@H]2CCCN2C(=O)CC=C[C@H]1C

Result:
1: 0.57; 2: -0.202; 3: 0.551; 4: 0.519; 5: -0.033; 6: -0.322; 7: 0.369; 8: 0.627

Field: composite z-score. Fill in for each record below.
1. CCN1C(=O)[C@@H]2[C@H]3C(=CC[C@@H]2C1=O)C1(OCCCO1)[C@H]1O[C@H]1[C@H]3O
2. CC(C)=CCCC(C)=CCON=C1C[C@@H](O)[C@@H](O)[C@@H]2[C@@H]3C(=O)N(C(C)(C)C)C(=O)[C@@H]3CC[C@H]12
3. CON=C[C@@H](C)[C@H](OCc1ccccc1)C(C)C

Result:
1: 0.286; 2: 0.512; 3: 0.327

* * *

Give composite z-score for every item shown.
Biological target: Dickkopf-related protein 1 (Homo sapiens) (UniProt O94907)
Sequence (O94907 whole entry, looked up): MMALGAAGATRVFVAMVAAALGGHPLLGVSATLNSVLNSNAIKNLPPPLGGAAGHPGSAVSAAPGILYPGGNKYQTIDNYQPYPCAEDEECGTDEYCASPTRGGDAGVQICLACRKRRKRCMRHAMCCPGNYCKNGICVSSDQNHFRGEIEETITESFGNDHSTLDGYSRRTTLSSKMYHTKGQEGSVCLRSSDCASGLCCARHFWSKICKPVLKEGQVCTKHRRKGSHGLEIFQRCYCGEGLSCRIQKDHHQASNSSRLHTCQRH
Test: DKK1 binders on small-molecule microarrays, primary screen, biochemical, small-molecule microarray, 635 nm fluorescence scan (AID 1106);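 further: score merges emission near 667 nm with signal to noise over three replicate slides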
Conditions: DKK1 binding, higher = more signal
Answers are plain numbers.

Worked set:
compound: CCc1cc2c(nc1CC)CCN(CCC(C)=NO[C@H](C)c1cn([C@@H]3COC[C@H]3O)nn1)C2
target.or.system: Dickkopf-related protein 1 (Homo sapiens) (UniProt O94907)
composite z-score: 0.611
--
compound: C=COC[C@@H]1CN2[C@@H](CC[C@@H](C)[C@@H]2c2ccc(Br)cc2)C(=O)O1
target.or.system: Dickkopf-related protein 1 (Homo sapiens) (UniProt O94907)
composite z-score: -0.0521
--
compound: CCN1C(=O)[C@H]2[C@H]3[C@H](O)[C@H](O)CC(=O)[C@@H]3CC[C@H]2C1=O
target.or.system: Dickkopf-related protein 1 (Homo sapiens) (UniProt O94907)
composite z-score: 0.396

Provide composite z-score values for the following items, in order.
1. COc1cccc([C@@H]2Oc3ccc(OC)cc3C(=O)[C@H]2O)c1
2. C[C@@H](c1ccccc1)N1C(=O)[C@H]2[C@H]3[C@H](O)[C@H](O)CC(=NO[C@@H]4O[C@H](CO)[C@@H](O)[C@H](O)[C@H]4O)[C@@H]3CC[C@H]2C1=O
3. O=C1CCCC(C2=CCCCC2=O)C1 (stereo unspecified)
4. CC(C)CON=C1C[C@@H](O)[C@@H](O)[C@@H]2[C@@H]3C(=O)N(c4cccc(Oc5ccccc5)c4)C(=O)[C@@H]3CC[C@@H]12
5. CCc1cc2c(nc1CC)CCN(CCC(C)=NOC[C@H]1O[C@H](c3ccccc3)C=C[C@@H]1Oc1ccc(OC)cc1)C2
6. C#CCCCON=C1C[C@@H](O)[C@@H](O)[C@@H]2[C@@H]3C(=O)N(c4ccc(F)cc4F)C(=O)[C@@H]3CC[C@@H]12
7. COC(=O)[C@@H]1CC[C@H](C)[C@@H](c2ccc(C)cc2)N1C(=O)c1ccc(C=NO[C@H](C)c2cn([C@H](CO)Cc3ccccc3)nn2)cc1

Result:
1. 0.527
2. 0.393
3. 0.923
4. 0.195
5. -0.159
6. 0.302
7. 0.81
